Below: a set of entries, each annotated with reported Immobility time.
tested on: forced swim mice; experiment: Forced swim test in mice; type: in vivo, ICR mice; conditions: 20 mg/kg i.p., 30 min before test; last 4 min of 6 min

{"compound": "CN(C)CCC(Oc1cccc2c1OCO2)c1cccs1.O=C(O)C(=O)O (centres unmarked)", "Immobility time, s": 18.6}
{"compound": "CNCCC(Oc1cccc2c1OCO2)c1ccco1.O=C(O)C(=O)O (centres unmarked)", "Immobility time, s": 28.4}
{"compound": "CNCCC(Oc1cccc2c1OCO2)c1cccs1.O=C(O)C(=O)O (centres unmarked)", "Immobility time, s": 43.1}
{"compound": "CN(C)CCC(Oc1cccc2c1OCO2)c1ccco1.O=C(O)C(=O)O (centres unmarked)", "Immobility time, s": 61.2}
